- System: Prevotella sp.
- method: Antimicrobial activity in Prevotella sp.by CLSI agar dilution method
- Type: functional
Measured MIC values are reported for all entries that follow.
Write it as a number; the unit µg/mL goes unstated.

Known results for compounds:
>>> result_value("C[C@@H](O)[C@H]1C(=O)N2C(C(=O)O)=C(SCCNC=N)C[C@H]12 [IMIPENEM ANHYDROUS]")
0.03
>>> result_value("Cc1ncc([N+](=O)[O-])n1CCO [METRONIDAZOLE]")
0.5

Kindly review the next compound as well.
Fill in MIC for record C[C@@H](O)[C@H]1C(=O)N2C(C(=O)O)=C(S[C@H]3CC[S@@+]([O-])C3)S[C@H]12 [SULOPENEM]
0.03
